Where do these numbers come from? They come from ChEMBL document CHEMBL3301361.

assay: in vitro; conditions: SD, HW or BN, rat, plasma
RESULT_TYPE: fraction unbound at 5 h
Answer with a bare number; do not write a unit.

Example results:
> print(dat)
                                   molecule  test.value
1  CN[C@H]1CC[C@@H](c2ccc(Cl)c(Cl)c2)c2ccccc21 [SERTRALINE]        0.02
2  O=C(O)CCc1nc(-c2ccccc2)c(-c2ccccc2)o1 [OXAPROZIN]      0.0024
3  CC(C)(C)NC(=O)NCCN1CC(NC(=O)c2cc(Cl)cc(Cl)c2)C1       0.101

So, C[C@H]1CN(Cc2cc(Cl)ccc2OCC(=O)O)CCN1C(=O)Cc1ccccc1 ? Its fraction unbound at 5 h was 0.11

The recorded fraction unbound at 5 h for O=C(CC12CC3CC(CC(C3)C1)C2)Nc1cccc2c(=O)n(C(CO)CO)ccc12 is 0.117

Form: molecule = CC(C)(C)NC(=O)CN1CCN(CC(=O)NC23CC4CC(CC(C4)C2)C3)CC1 ; fraction unbound at 5 h = 0.309

So, Cc1nccnc1-c1ccc(CC(=O)N[C@H](C)c2ccc(OCC(F)(F)F)cn2)cc1 ? Its fraction unbound at 5 h was 0.17

For this molecule ( c1ccc2c(c1)CC(N1CCN(c3cccc4c3OCCO4)CC1)C2 ), measured fraction unbound at 5 h is 0.0428

Entry under test: N#Cc1ccccc1C[C@@H](C(=O)O)N1CCC(CN2CCC(Oc3ccc(Cl)c(Cl)c3)CC2)CC1 . Its fraction unbound at 5 h was 0.224

Just so you know, measured fraction unbound at 5 h for O=S(=O)(Nc1ncns1)c1cc(F)c(Oc2ccc(Cl)cc2-c2ccnn2C2CNC2)cc1F came out at 0.0532

###

assay: in vitro; conditions: SD, HW or BN, rat, plasma
Mark condition met for fraction unbound at 5 h under 0.1, condition not met if at or over.

The examples below pair each entry with its known result.
COMPOUND	ASSIGNED_CLASS
Cc1ccc(S(=O)(=O)Nc2c(C(=O)NC(C)C)c(C)nn2-c2ccccc2)cc1	condition met
COc1ccccc1CN1C(=O)c2ccccc2C1C(=O)NC1CCC(C)CC1 (stereo not drawn)	condition met
CCOc1cc2ncc(C(N)=O)c(Nc3cc(C)ccc3F)c2cc1N1CCN(C)CC1	condition not met
c1ccc([C@@H]([C@H](c2ccccc2)N2CCCCC2)N2CCCCC2)cc1	condition not met

Ask: Given CN1CCC(N2CCN(C(=O)[C@H](NC(=O)c3ccc4cc[nH]c4c3)c3ccccc3)CC2)CC1 , is recorded fraction unbound at 5 h strictly lower than 0.1?
Result: condition not met

Ask: Given Cc1ccc(S(=O)(=O)Nc2c(C(=O)NCC(C)(C)C)c(C)nn2-c2ccccc2)cc1 , is recorded fraction unbound at 5 h strictly lower than 0.1?
Result: condition met

Ask: Find out if reported fraction unbound at 5 h for Cc1nnc(-c2ccc(N3CCC(Oc4cc(F)ccc4Cl)CC3)nn2)o1 is less than 0.1
Result: condition met

###

experiment: physchem; conditions: octan-1-ol/water, pH 7.4, LogD7.4
RESULT_TYPE: logD
I'd appreciate a reply containing only the number, no unit.

> print(dat)
                                test.smiles  test.value
1  COc1cc(N2CCN(C(C)=O)CC2)ccc1Nc1ncc(Cl)c(-c2cnc3c(CO)cccn23)n1         3.1

Noted for CCn1c(=O)c2[nH]c(-c3ccccc3)nc2n(CC)c1=O : its logD reads 3.3

# logD (compound: CC(C)(C)NC(=O)[C@@H]1CN(Cc2cccnc2)CCN1C[C@@H](O)C[C@@H](Cc1ccccc1)C(=O)N[C@H]1c2ccccc2C[C@H]1O ) is 2.9

logD in this record for O=c1[nH]c2c(O)ccc(CCNCCS(=O)(=O)CCCOCCc3ccccc3)c2s1 : 2.61

Measured logD, Cc1ccc(C(=O)N2CC3CNCC(C2)O3)cc1NC(=O)CC12CC3CC(CC(C3)C1)C2 : 2.12

###

experiment: in vitro; settings: human, hepatocytes
Entries and their hepatocyte CLint

COMPOUND	hepatocyte CLint
CCC(=O)O[C@]1(C(=O)SCF)[C@H](C)C[C@H]2[C@@H]3C[C@H](F)C4=CC(=O)C=C[C@]4(C)[C@@]3(F)[C@@H](O)C[C@@]21C [FLUTICASONE PROPIONATE]	> 150 µL/min/1e6 cells
CC(C)[C@H](C(=O)Nc1nccs1)c1ccc(Cl)cc1	12 µL/min/1e6 cells
Cc1cc(-c2ccc(Cl)c(C(=O)NCC3(O)CCCCCC3)c2)nn1C[C@H](O)CN	< 3 µL/min/1e6 cells
Cc1nn(C)c2cc(N3CCN(C(=O)[C@@H]4CCCC[C@H]4C(=O)NC4(C#N)CC4)[C@H](C)C3)ccc12	7.41 µL/min/1e6 cells

Lab note: measured hepatocyte CLint of CO[C@H]1C[C@@H]2CC[C@@H](C)[C@@](O)(O2)C(=O)C(=O)N2CCCC[C@H]2C(=O)O[C@H]([C@H](C)C[C@@H]2CC[C@@H](O)[C@H](OC)C2)CC(=O)[C@H](C)/C=C(\C)[C@@H](O)[C@@H](OC)C(=O)[C@H](C)C[C@H](C)/C=C/C=C/C=C/1C [SIROLIMUS] was 50.1 µL/min/1e6 cells

hepatocyte CLint recorded for this compound, CCC1(C2=NCCN2)Cc2ccccc2O1 (configuration not stated) [EFAROXAN] , is < 3 µL/min/1e6 cells

// field: hepatocyte CLint; key: Cc1ccc(S(=O)(=O)Nc2c(C(=O)N[C@@H](C)C(C)(C)C)c(C)nn2C(C)C)cc1 ; value = < 3 µL/min/1e6 cells

###

experiment: in vitro; conditions: human, plasma, PPB
RESULT_TYPE: fraction unbound at 5 h
I only need the number, thanks.

> print(dat)
                                   molecule              result.type  test.value
1  CN1CCN(c2cc3c(Nc4cccc(Cl)c4Cl)c(C(N)=O)cnc3cc2F)CC1  fraction unbound at 5 h      0.0437
2  CC#C[C@]1(O)CC[C@H]2[C@@H]3CCC4=CC(=O)CCC4=C3[C@@H](c3ccc(N(C)C)cc3)C[C@@]21C  fraction unbound at 5 h      0.0015
3  COc1cc(OC)c(S(=O)(=O)N(c2ccccc2)C(C)C)cc1NC(C)=O  fraction unbound at 5 h       0.005

// recorded fraction unbound at 5 h for NC(=O)c1cncc(-c2ccc([C@H]3CC[C@H](CCO)CC3)cc2)n1 : 0.028

// sample C[C@@H](NC(=O)C1CCCCN1C)c1ccc(Nc2ncc3cc(-c4ccncc4)ccc3n2)cc1 (some centres undefined) , its fraction unbound at 5 h was 0.0383

So, COCCOC(=O)C1=C(C)NC(C)=C(C(=O)OC(C)C)C1c1cccc([N+](=O)[O-])c1 (centres undefined) ? Its fraction unbound at 5 h was 0.0183

For O=C(Nc1ccc([N+](=O)[O-])cc1O)Nc1ccccc1Br the molecule record lists fraction unbound at 5 h as 0.0027

// recorded fraction unbound at 5 h for COCCOc1cc2ncc(C(N)=O)c(Nc3ccc(F)cc3F)c2cc1N1CCN(C)CC1 : 0.454

Consider Cc1c(Cl)ccc(OC2CCN(C[C@H](O)CNC(=O)c3c[nH]c(=O)cc3C(F)(F)F)CC2)c1Cl . Its measured fraction unbound at 5 h is 0.0335

###

assay: in vitro; settings: human, liver microsomes
Residues, ends and D or L forms follow the SMILES beside them.
Examples of molecules with documented microsomal CLint follow.
# value in µL/min/mg; strip the unit string

MOLECULE	RESULT_TYPE	UNIT_OF_MEASURE	TEST_VALUE
Cc1c(C)c2c(c(C)c1O)CCC(C)(COc1ccc(CC3SC(=O)NC3=O)cc1)O2 (centres undefined)	microsomal CLint	µL/min/mg	49
CCOC(=O)c1cnc2c(N)cccc2c1O	microsomal CLint	µL/min/mg	20.4
COc1cc2c(Nc3ccc(F)c(Cl)c3)c(C(N)=O)cnc2cc1OCCN(C)CCO	microsomal CLint	µL/min/mg	27.5
CC(=O)Nc1nc(CCc2ccc(NC(=N)N)cc2)cs1	microsomal CLint	µL/min/mg	3.98
CS(=O)(=O)c1ccc(-c2cnc(N)c(-c3ccc(C(F)(F)F)nc3)c2)cc1	microsomal CLint	µL/min/mg	6.17
O=C(Nc1cc(-c2ccnc(Nc3ccccc3)c2)ccn1)C1CCOCC1	microsomal CLint	µL/min/mg	12.6
C[C@H](NC(=O)[C@@H](Cc1c[nH]c2ccccc12)NC(=O)[C@@H](N)Cc1c[nH]cn1)C(=O)N[C@@H](Cc1c[nH]c2ccccc12)C(=O)N[C@H](Cc1ccccc1)C(=O)N[C@@H](CCCCN)C(N)=O (HELM PEPTIDE1{H.[dW].A.W.[dF].K.[am]}$$$$V2.0)	microsomal CLint	µL/min/mg	61.7
COc1cccc2c(-c3c(C)n(CC(=O)O)c4ccc(C)cc34)ccnc12	microsomal CLint	µL/min/mg	5

Consider Cc1c(Cl)ccc(OC2CCN(C3CCN(C(=O)c4cccc(S(C)(=O)=O)c4)CC3)CC2)c1Cl . Its measured microsomal CLint is 13.5

Please fill in: microsomal CLint reported for CCN(CC)c1ccc2cc(C(C)=O)c(=O)oc2c1 = 120

response.value for O=c1[nH]c2c(O)ccc([C@@H](O)CNCCCSCCNCCc3ccccc3Cl)c2s1 (field: microsomal CLint) = 11

// microsomal CLint value for Cc1ccc(S(=O)(=O)NC(=O)N2CCC(N3CCC(Oc4ccc(Cl)c(C)c4Cl)CC3)CC2)cc1 : 3

Lab note: measured microsomal CLint of CC(=O)Nc1ccc(CNc2[nH]nc3cccc(Oc4ccc(S(C)(=O)=O)cc4)c23)cc1 was 75

Record N=C(N)c1cc2c(OCc3ccccc3)cccc2s1 . Reported microsomal CLint: 11
